molecular target: Human SARS-CoV-2_Wuhan S (SmT1) (SARS-CoV-2 (Wuhan), UniProt P0DTC2 14-1208); test: flow cytometry SVNA: VHH-Fc inhibits S binding to ACE2 on Vero E6 cells
I'd appreciate it if you could supply IC50 values for the items below.
Answer format reminder: number followed by unit.

Example entries begin here.
>  <binder>
NRCoV2-02 VHH-Fc (Fc fusion, bivalent VHH-Fc) EVQLVESGGGLVQAGGSLRLSCAASGFTFSNYAMNWVRQAPGKGLEWVSGISGRGDDTRYADSVKGRFTISRDNAKNTLFLQMRSLRPEDTGVYRCTKGPDLYYFGSGYSDRGQGTQVTVSS

>  <reading>
4.7 nM

$$$$
>  <binder>
NRCoV2-MRed04 VHH-Fc (Fc fusion, bivalent VHH-Fc) EVQLVESGGGLVQPGRSLRLSCAASGNSFSISTMGWFRQAPGKERELVASIWSDTTTSYADSVKGRFTISTDNTRTKVYLQMSSLNPEDTAVYYCAADRGFVVRGQYDYWGQGTQVTVSS

>  <reading>
5 nM

$$$$
>  <binder>
NRCoV2-20 VHH-Fc (Fc fusion, bivalent VHH-Fc) EVQLQQSGGGLVQPGGSLRLSCAASGRTFSNYVVGWFRQAPQAPGKDHEFVAVISGSDTETYYADSVKGRFTISRDNAKNTVYLQMNSLKPEDTAVYYCAADRGMSYYYTRATEYYYWGQGTQVTVSS

>  <reading>
6.5 nM

$$$$

Shift focus to the following entry.
Which IC50 value belongs to NRCoV2-11 VHH-Fc (Fc fusion, bivalent VHH-Fc) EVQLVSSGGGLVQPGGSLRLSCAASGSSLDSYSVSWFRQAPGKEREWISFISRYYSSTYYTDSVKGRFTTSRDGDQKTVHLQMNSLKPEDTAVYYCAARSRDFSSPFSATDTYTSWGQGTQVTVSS ?
3.2 nM
